- Assay system: Alpha-2C adrenergic receptor (Homo sapiens) (UniProt P18825)
- Sequence (P18825 whole entry, looked up): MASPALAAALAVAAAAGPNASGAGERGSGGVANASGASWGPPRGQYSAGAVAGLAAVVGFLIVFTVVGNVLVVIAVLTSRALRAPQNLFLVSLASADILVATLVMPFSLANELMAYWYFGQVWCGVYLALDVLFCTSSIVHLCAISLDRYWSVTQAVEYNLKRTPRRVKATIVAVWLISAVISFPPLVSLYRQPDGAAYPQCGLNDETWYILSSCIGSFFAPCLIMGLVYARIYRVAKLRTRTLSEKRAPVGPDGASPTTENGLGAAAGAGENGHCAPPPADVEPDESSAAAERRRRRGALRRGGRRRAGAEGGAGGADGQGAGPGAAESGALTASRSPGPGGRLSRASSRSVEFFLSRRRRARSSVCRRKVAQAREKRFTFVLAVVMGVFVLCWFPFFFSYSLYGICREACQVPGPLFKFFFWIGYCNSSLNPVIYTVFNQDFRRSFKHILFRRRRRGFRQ
- Assay explanation: compounds altering alpha2C-coupled GIRK flux – cell-based, HEK293 alpha2C/GIRK1/2, thallium flux, primary screen (AID 624);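 also: slope of fluorescence ratio to pre-addition baseline per second over 15 to 24 s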
- Cond: thallium flux BTC fluorescence, at 10 µM, actives lie on both sides
Activity calls are given as the source filed them.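 The calls were made as follows: active = fluorescence slope after compound addition differing from the mean of all screened samples at 99.7% confidence, in either direction; inactive = the rest.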
Respond only with the outcome that fits, drawn from TRUE = active, FALSE = inactive

Cc1ccc(S(=O)(=O)NCC(c2cccnc2)N(C)C)cc1 (centres undefined) = FALSE
Nc1nc2n(n1)C(c1cccc(Cl)c1)CC(c1ccc(F)cc1)N2 (centres undefined) = FALSE
O=C1OC(N2CCN(c3ccccn3)CC2)c2ccccc21 (centres undefined) = FALSE
COc1ccc(CC(=O)Nc2cc(Cl)ccc2O)cc1 = FALSE
CCc1cccc(NC(=O)Cn2cc3c(n2)CCCC3)c1 = TRUE

Asked: // param item: CCSc1nnc(N2C(=O)CC(c3ccsc3)C3=C2CC(C)(C)CC3=O)s1 (centres undefined) ; yields the recorded call
Given back: FALSE

Asked: Proceed to Cn1c(=O)c2c(nc(CN3CCc4ccccc4C3)n2Cc2cccc(Cl)c2)n(C)c1=O
Given back: FALSE

Asked: Repeat for the following compound: COc1cccc(C2C(C(=O)c3cccs3)=C(O)C(=O)N2CCCn2ccnc2)c1OC (centres undefined)
Given back: FALSE

Asked: Ok, now Cc1ccc(NC(=O)CCC(=O)OCC(F)(F)C(F)F)cc1
Given back: FALSE

Asked: Okay, and O=C(c1ccccc1)c1ccc(N2CCNCC2)cc1 ?
Given back: FALSE

Asked: Repeat for the following compound: Brc1ccc2ncnc(Nc3ccc(N4CCOCC4)cc3)c2c1
Given back: FALSE
